Entry source: the RNAGym collection of RNA variant scans (doi:10.1093/molbev/msab373)

B1: Azoarcus group I ribozyme (parent)
chain: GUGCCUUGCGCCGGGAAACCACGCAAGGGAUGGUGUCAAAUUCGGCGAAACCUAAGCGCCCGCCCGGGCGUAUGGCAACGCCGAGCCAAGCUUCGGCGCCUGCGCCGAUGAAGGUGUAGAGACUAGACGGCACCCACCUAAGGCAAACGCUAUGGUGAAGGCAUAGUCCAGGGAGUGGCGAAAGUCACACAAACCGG

Variants of: B1
protocol_details: reverse-splicing fitness (ratio to wild type); higher = more active; in vitro selection; Mg2+ level not given
experimental_endpoint: reverse-splicing fitness
Respond with the number and no other words.

Below, each entry is followed by its recorded reverse-splicing fitness result.
>>> recorded_result("C82A C150A C169G U176C")
0.0241
>>> recorded_result("C82A A111U A120G A145U C150A C169A U176A")
0.0146
>>> recorded_result("C82G A111U A120C A145U C150U")
0.0337
>>> recorded_result("A111C A120G A145C C169G")
0.201
>>> recorded_result("C82U A120G A145G C150U C169U")
0.0183

Look at this variant and give its reported reverse-splicing fitness. C82U A145G C169U U176C
0.0131
